Sourced from ChEMBL document CHEMBL1129484

Overview of reported EC50 across a group of compounds:
- Test system: A549
- experiment: Cytotoxicity on lung carcinoma (A-549) cell line
- Format: functional
- condition-info: Homo sapiens, read-out: ED50 (the source's name)

compound	system-name	EC50, µg/mL
CC(=O)OCC1=C[C@H]2[C@@H]3C(C)(C)[C@]3(OC(=O)Cc3ccccc3)C[C@@H](C)[C@]2(O)C2C=C(C)C(=O)[C@@]2(O)C1 (stereo partly specified)	A549	26.1
C/C=C(/C)C(=O)O[C@@]12C[C@@H](C)[C@]3(O)C4C=C(C)C(=O)[C@@]4(O)CC(CO)=C[C@H]3[C@@H]1C2(C)C (stereo partly specified)	A549	11.6
CC1=CC2[C@@]3(O)[C@H](C)C[C@]4(OC(=O)CCCCCCC[C@H]5C[C@@H]5C)[C@H]([C@@H]3C(C)=C(CO)C[C@]2(O)C1=O)C4(C)C (stereo partly specified)	A549	2.85
C/C=C(/C)C(=O)O[C@@]12C[C@@H](C)[C@]3(O)C4C=C(C)C(=O)[C@@]4(O)CC(COC(C)=O)=C[C@H]3[C@@H]1C2(C)C (stereo partly specified)	A549	18.9
C=C(C)[C@]12C[C@@H](C)[C@@]34OC(Cc5ccccc5)(O[C@@H]1[C@@H]3C=C(COC(=O)Cc1ccc(O)c(OC)c1)C[C@]1(O)C(=O)C(C)=CC41)O2 (stereo partly specified)	A549	1.12
C=C(C)[C@]12C[C@@H](C)[C@@]34OC(Cc5ccccc5)(O[C@@H]1C3C=C(CO)C[C@]1(O)C(=O)C(C)=CC41)O2 (stereo partly specified)	A549	5.41

====

Overview of reported LC50 across a group of molecules:
- experiment: Lethal concentration against Brine Shrimp
- Assay type: organism-based
- condition-info: artemia, in vivo

molecule	LC50
CC(=O)OCC1=C[C@H]2[C@@H]3C(C)(C)[C@]3(OC(=O)Cc3ccccc3)C[C@@H](C)[C@]2(O)C2C=C(C)C(=O)[C@@]2(O)C1 (some centres undefined)	12 µg/mL
C/C=C(/C)C(=O)O[C@@]12C[C@@H](C)[C@]3(O)C4C=C(C)C(=O)[C@@]4(O)CC(COC(C)=O)=C[C@H]3[C@@H]1C2(C)C (some centres undefined)	191 µg/mL
C=C(C)[C@]12C[C@@H](C)[C@@]34OC(Cc5ccccc5)(O[C@@H]1[C@@H]3C=C(COC(=O)Cc1ccc(O)c(OC)c1)C[C@]1(O)C(=O)C(C)=CC41)O2 (some centres undefined)	281 µg/mL
C/C=C(/C)C(=O)O[C@@]12C[C@@H](C)[C@]3(O)C4C=C(C)C(=O)[C@@]4(O)CC(CO)=C[C@H]3[C@@H]1C2(C)C (some centres undefined)	115 µg/mL

====

Overview of reported EC50 across a group of compounds:
- Test system: HT-29
- experiment: Cytotoxicity on adenocarcinoma (HT-29 colon) cell line
- Assay type: functional
- condition-info: Homo sapiens, read-out: ED50 (the source's name)
reported-property: EC50 (µg/mL)

compound	system-name	reported-property	observed-result
C/C=C(/C)C(=O)O[C@@]12C[C@@H](C)[C@]3(O)C4C=C(C)C(=O)[C@@]4(O)CC(COC(C)=O)=C[C@H]3[C@@H]1C2(C)C (stereo not given in full)	HT-29	EC50	30.8
C=C(C)[C@]12C[C@@H](C)[C@@]34OC(Cc5ccccc5)(O[C@@H]1C3C=C(CO)C[C@]1(O)C(=O)C(C)=CC41)O2 (stereo not given in full)	HT-29	EC50	7.41
C/C=C(/C)C(=O)O[C@@]12C[C@@H](C)[C@]3(O)C4C=C(C)C(=O)[C@@]4(O)CC(CO)=C[C@H]3[C@@H]1C2(C)C (stereo not given in full)	HT-29	EC50	26.5
CC(=O)OCC1=C[C@H]2[C@@H]3C(C)(C)[C@]3(OC(=O)Cc3ccccc3)C[C@@H](C)[C@]2(O)C2C=C(C)C(=O)[C@@]2(O)C1 (stereo not given in full)	HT-29	EC50	29.5
C=C(C)[C@]12C[C@@H](C)[C@@]34OC(Cc5ccccc5)(O[C@@H]1[C@@H]3C=C(COC(=O)Cc1ccc(O)c(OC)c1)C[C@]1(O)C(=O)C(C)=CC41)O2 (stereo not given in full)	HT-29	EC50	3
